settings: in 1,4-dioxane, 293.15 K
readout: solubility (mole fraction)
Answers are plain numbers.

[ask] Param item = O=C1OC(=O)[C@H]2[C@@H]1[C@@H]1C=C[C@H]2C1 ; retrieve measured solubility (mole fraction).
[reply] 0.0836

* * *

details: in NMP, 323.15 K
readout: solubility (mole fraction)

[ask] GET /values?readout=solubility (mole fraction)&item= O=C1OC(=O)[C@H]2[C@@H]1[C@@H]1C=C[C@H]2C1
[reply] 0.265

* * *

details: in ethyl acetate, 283.15 K
readout: solubility (mole fraction)
Numbers only.

[ask] Data request, read-out solubility (mole fraction), for O=C1OC(=O)[C@H]2[C@@H]1[C@@H]1C=C[C@H]2C1
[reply] 0.0338

* * *

conditions: in isopropyl acetate, 298.15 K
readout: solubility (mole fraction)

[ask] Give the measured solubility (mole fraction) of O=C1OC(=O)[C@H]2[C@@H]1[C@@H]1C=C[C@H]2C1 .
[reply] 0.0417

* * *

conditions: in ethanol, 283.15 K
readout: solubility (mole fraction)
Answers are plain numbers.

[ask] Look at this compound and give its reported solubility (mole fraction). O=C1OC(=O)[C@H]2[C@@H]1[C@@H]1C=C[C@H]2C1
[reply] 0.00264

* * *

conditions: in n-pentyl acetate, 298.15 K
readout: solubility (mole fraction)
Numbers only.

[ask] Item under review: O=C1OC(=O)[C@H]2[C@@H]1[C@@H]1C=C[C@H]2C1 . Reported solubility (mole fraction)?
[reply] 0.0388

* * *

settings: in DMF, 298.15 K
readout: solubility (mole fraction)

[ask] Fill in the blank: the reported solubility (mole fraction) of O=C1OC(=O)[C@H]2[C@@H]1[C@@H]1C=C[C@H]2C1 is ____.
[reply] 0.135

* * *

settings: in 1,4-dioxane, 318.15 K
readout: solubility (mole fraction)
Numbers only.

[ask] Quick one: solubility (mole fraction) for O=C1OC(=O)[C@H]2[C@@H]1[C@@H]1C=C[C@H]2C1 ?
[reply] 0.154

* * *

conditions: in methyl acetate, 308.15 K
readout: solubility (mole fraction)
Give bare numbers.

[ask] For the molecule shown here, O=C1OC(=O)[C@H]2[C@@H]1[C@@H]1C=C[C@H]2C1 , give the reported solubility (mole fraction).
[reply] 0.0851

* * *

conditions: in ethanol, 318.15 K
readout: solubility (mole fraction)
Give bare numbers.

[ask] Query (molecule): O=C1OC(=O)[C@H]2[C@@H]1[C@@H]1C=C[C@H]2C1 ; field requested: solubility (mole fraction)
[reply] 0.0135

* * *

settings: in n-propyl acetate, 288.15 K
readout: solubility (mole fraction)
One number for each entry.

[ask] Look at this compound and give its reported solubility (mole fraction). O=C1OC(=O)[C@H]2[C@@H]1[C@@H]1C=C[C@H]2C1
[reply] 0.0357

* * *

conditions: in ethyl acetate, 303.15 K
readout: solubility (mole fraction)

[ask] Reported solubility (mole fraction), molecule O=C1OC(=O)[C@H]2[C@@H]1[C@@H]1C=C[C@H]2C1 : ____
[reply] 0.0632

* * *

conditions: in methanol, 283.15 K
readout: solubility (mole fraction)

[ask] Can you look up the measured solubility (mole fraction) of O=C1OC(=O)[C@H]2[C@@H]1[C@@H]1C=C[C@H]2C1 for me?
[reply] 0.00504

* * *

settings: in n-pentyl acetate, 283.15 K
readout: solubility (mole fraction)

[ask] Name the recorded solubility (mole fraction) for O=C1OC(=O)[C@H]2[C@@H]1[C@@H]1C=C[C@H]2C1 .
[reply] 0.0231

* * *

details: in acetone, 298.15 K
readout: solubility (mole fraction)
Answers are plain numbers.

[ask] Request the reported solubility (mole fraction) associated with O=C1OC(=O)[C@H]2[C@@H]1[C@@H]1C=C[C@H]2C1
[reply] 0.0776

* * *

settings: in isopropyl acetate, 318.15 K
readout: solubility (mole fraction)
Give bare numbers.

[ask] What measured solubility (mole fraction) goes with O=C1OC(=O)[C@H]2[C@@H]1[C@@H]1C=C[C@H]2C1 ?
[reply] 0.0768

* * *

conditions: in NMP, 283.15 K
readout: solubility (mole fraction)
Give bare numbers.

[ask] Sample O=C1OC(=O)[C@H]2[C@@H]1[C@@H]1C=C[C@H]2C1 — what was its solubility (mole fraction)?
[reply] 0.126

* * *

settings: in isopropyl acetate, 293.15 K
readout: solubility (mole fraction)
One number for each entry.

[ask] Which solubility (mole fraction) is reported for this compound? O=C1OC(=O)[C@H]2[C@@H]1[C@@H]1C=C[C@H]2C1
[reply] 0.0357

* * *

conditions: in NMP, 278.15 K
readout: solubility (mole fraction)
Numbers only.

[ask] Look up solubility (mole fraction) for this molecule: O=C1OC(=O)[C@H]2[C@@H]1[C@@H]1C=C[C@H]2C1
[reply] 0.112

* * *

conditions: in ethyl acetate, 293.15 K
readout: solubility (mole fraction)
Answers are plain numbers.

[ask] For the compound shown here, O=C1OC(=O)[C@H]2[C@@H]1[C@@H]1C=C[C@H]2C1 , give the reported solubility (mole fraction).
[reply] 0.0484

* * *

conditions: in ethanol, 278.15 K
readout: solubility (mole fraction)
One number for each entry.

[ask] Give its solubility (mole fraction) value. Item: O=C1OC(=O)[C@H]2[C@@H]1[C@@H]1C=C[C@H]2C1
[reply] 0.00216

* * *

details: in methyl acetate, 323.15 K
readout: solubility (mole fraction)
Numbers only.

[ask] Name the reported solubility (mole fraction) value associated with the molecule O=C1OC(=O)[C@H]2[C@@H]1[C@@H]1C=C[C@H]2C1
[reply] 0.125

* * *

conditions: in ethyl acetate, 313.15 K
readout: solubility (mole fraction)

[ask] Please give the measured solubility (mole fraction) for this compound: O=C1OC(=O)[C@H]2[C@@H]1[C@@H]1C=C[C@H]2C1
[reply] 0.0838

* * *

conditions: in DMF, 313.15 K
readout: solubility (mole fraction)
Numbers only.

[ask] Need solubility (mole fraction) of O=C1OC(=O)[C@H]2[C@@H]1[C@@H]1C=C[C@H]2C1 , thanks.
[reply] 0.186

* * *

conditions: in n-butyl acetate, 283.15 K
readout: solubility (mole fraction)
Numbers only.

[ask] # get_value(readout='solubility (mole fraction)', item= O=C1OC(=O)[C@H]2[C@@H]1[C@@H]1C=C[C@H]2C1 )
[reply] 0.0259

* * *

conditions: in methanol, 298.15 K
readout: solubility (mole fraction)
Give bare numbers.

[ask] Entry O=C1OC(=O)[C@H]2[C@@H]1[C@@H]1C=C[C@H]2C1 has what solubility (mole fraction)?
[reply] 0.0101

* * *

conditions: in isobutyl acetate, 308.15 K
readout: solubility (mole fraction)
Answers are plain numbers.

[ask] Would you kindly share the measured solubility (mole fraction) for O=C1OC(=O)[C@H]2[C@@H]1[C@@H]1C=C[C@H]2C1 ?
[reply] 0.0552

* * *

conditions: in methanol, 288.15 K
readout: solubility (mole fraction)
One number for each entry.

[ask] Given O=C1OC(=O)[C@H]2[C@@H]1[C@@H]1C=C[C@H]2C1 , state its recorded solubility (mole fraction).
[reply] 0.00635

* * *

conditions: in 1,4-dioxane, 303.15 K
readout: solubility (mole fraction)

[ask] Can you look up the measured solubility (mole fraction) of O=C1OC(=O)[C@H]2[C@@H]1[C@@H]1C=C[C@H]2C1 for me?
[reply] 0.107

* * *

conditions: in acetone, 288.15 K
readout: solubility (mole fraction)
Numbers only.

[ask] Quick one: solubility (mole fraction) of O=C1OC(=O)[C@H]2[C@@H]1[C@@H]1C=C[C@H]2C1 ?
[reply] 0.0559

* * *

conditions: in acetone, 293.15 K
readout: solubility (mole fraction)
One number for each entry.

[ask] Quick check: solubility (mole fraction) of O=C1OC(=O)[C@H]2[C@@H]1[C@@H]1C=C[C@H]2C1 ?
[reply] 0.0658

* * *

conditions: in acetone, 283.15 K
readout: solubility (mole fraction)

[ask] Quick one: solubility (mole fraction) of O=C1OC(=O)[C@H]2[C@@H]1[C@@H]1C=C[C@H]2C1 ?
[reply] 0.0475

* * *

conditions: in acetone, 313.15 K
readout: solubility (mole fraction)
Give bare numbers.

[ask] Could you tell me which solubility (mole fraction) is on file for O=C1OC(=O)[C@H]2[C@@H]1[C@@H]1C=C[C@H]2C1 ?
[reply] 0.121

* * *

settings: in n-butyl acetate, 278.15 K
readout: solubility (mole fraction)
Answers are plain numbers.

[ask] For O=C1OC(=O)[C@H]2[C@@H]1[C@@H]1C=C[C@H]2C1 , what is its reported solubility (mole fraction)?
[reply] 0.0216

* * *

details: in isopropyl acetate, 313.15 K
readout: solubility (mole fraction)

[ask] Consider the compound shown here: O=C1OC(=O)[C@H]2[C@@H]1[C@@H]1C=C[C@H]2C1 What is its recorded solubility (mole fraction)?
[reply] 0.0661

* * *

settings: in DMF, 303.15 K
readout: solubility (mole fraction)
One number for each entry.

[ask] Tell me the measured solubility (mole fraction) of O=C1OC(=O)[C@H]2[C@@H]1[C@@H]1C=C[C@H]2C1 , please.
[reply] 0.152

* * *

settings: in ethyl acetate, 323.15 K
readout: solubility (mole fraction)
Give bare numbers.

[ask] Record request: solubility (mole fraction) value, item O=C1OC(=O)[C@H]2[C@@H]1[C@@H]1C=C[C@H]2C1
[reply] 0.11

Values compiled from BigSolDB 2.1.
